Listed next: entries and their corresponding potency estimated from few doses.
- Tested on: PAK4
- Design: species or system human, MV4-11 + K-562 + COLO205 + SK-N-BE2 + OVCAR-8
- DETAILS: read-out: apparent Kd; compound concentrations:100 nM and 1000 nM (sheet 'Samples'); n = 1
Numeric answer only, unit nM assumed.

Some solved cases for reference:
COMPOUND: COc1cc[nH]c1/C=C1\C(=O)Nc2ccc(F)c(C#C[C@@H](O)[C@@H](N)[C@@H](C)O)c21
potency estimated from few doses, nM: 350
//
COMPOUND: Cl.Cn1c(=O)c(Cc2ccc(F)cc2F)cc2cnc(NC3CCOCC3)nc21
potency estimated from few doses, nM: 1650
//
COMPOUND: Cl.Cl.NCC(C(=O)Nc1cc(Br)c(-c2ccnc3[nH]ccc23)s1)c1ccccc1.NCC(C(=O)Nc1cc(Br)c(-c2ccnc3[nH]ccc23)s1)c1ccccc1 (stereo not shown) [GSK1269851A]
potency estimated from few doses, nM: 736
//
COMPOUND: Cc1cccc(Nc2nc(N[C@H]3CCNC3)ncc2C(N)=O)c1.Cl [GSK2197149A]
potency estimated from few doses, nM: 562
//
COMPOUND: CC(=O)N[C@@H](Cc1ccc(OP(=O)(O)O)cc1)C(=O)N[C@H]1CCC(=O)N2CCC[C@@H](C(=O)NCc3ccc(Cl)cc3)N2C1=O
potency estimated from few doses, nM: 1170

Look up potency estimated from few doses: `CC(C)N1CCC(n2cnc(-c3ccc(F)cc3)c2-c2ccnc(N)n2)CC1` 726

Look up potency estimated from few doses: `CN1C[C@@H]2Cn3c(c(C4=C(c5cn(C)c6ccccc56)C(=O)NC4=O)c4ccccc43)C[C@H]2C1.Cl` 558

Value source: paper PMC11062922
